Data origin: PubChem BioAssay (NCI)

- System: ACHN renal
- method notes: NCI tumour cell line growth inhibition, 48 h
reported metric: TGI

Entry Nc1nc(N)c2c(n1)NC(c1ccc(Cl)cc1)C1CCc3ccccc3C1=N2 (stereo unspecified) has what TGI?
18.3 µM

Entry COc1ccc2nc3c(nc2c1)C(C)(C)C=C3c1ccc(Br)cc1 has what TGI?
> 100 µM

Entry COc1cc2c(cc1OC)C/C(=N\O)c1cc(OC)c(OC)cc1/C=C\2 has what TGI?
> 100 µM

Entry Cc1ccnc2[nH]c(-c3ccc(Cl)cc3)cc(=O)c12 has what TGI?
> 100 µM

Entry Cn1c(=Nc2ccccc2[N+](=O)[O-])sc2ccccc21 has what TGI?
> 100 µM

Entry COc1cc(-c2cc(-c3ccc(Nc4nc(Nc5ccc(Cl)cc5)nc(Nc5ccc(Cl)cc5)n4)cc3)no2)cc(OC)c1OC has what TGI?
> 100 µM

Entry CN1C(=O)c2c(c3c4ccccc4n(C)c3c3c2c2ccccc2n3C)C1=O has what TGI?
> 100 µM

Entry CC(=O)OC1CC[C@@]2(C)C(=CC[C@@H]3[C@@H]2CC[C@]2(C)Nc4c(cnn4-c4ccc(F)cc4)C[C@@H]32)C1 (stereo partly specified) has what TGI?
> 100 µM

Entry O=c1[nH]c(=O)n(C2C[C@@H](O)[C@@H](CO)O2)cc1F (stereo partly specified) has what TGI?
> 100 µM

Entry Cc1[nH]c(-c2ccccc2)c(O)c1C(=O)OC1CC(C)CCC1C(C)C (stereo unspecified) has what TGI?
30 µM

Entry C#Cc1cccc(NC(=O)C2CCCCN2C(=O)CCl)c1 (stereo unspecified) has what TGI?
24.5 µM

Entry O=S(=O)(O)c1ccc([Se][Se]c2ccc(S(=O)(=O)O)cc2)cc1 has what TGI?
> 100 µM

Entry c1ccc(OCC[P+](c2ccccc2)(c2ccccc2)c2ccccc2)cc1 has what TGI?
> 81.9 µM

Entry CS(=O)(=O)Nc1cc(-c2ccc3ncnc(Nc4ccc(OCc5ccccn5)c(Cl)c4)c3c2)cnc1Cl has what TGI?
> 100 µM

Entry O=C1/C(=C/Cc2ccco2)N=C(c2ccccc2)N1c1nc2ccc(Sc3ccccc3)cc2[nH]1 has what TGI?
44.9 µM

Entry CN(C)c1ccc(/C=C(\C#N)C(=O)c2ccccc2)cc1Br has what TGI?
> 100 µM

Entry COc1ccc(NC(=O)CC2SC(=Nc3ccc(Cl)cc3C)NC2=O)c([N+](=O)[O-])c1 (stereo unspecified) has what TGI?
> 100 µM

Entry O=C(Nc1cccc(Cl)c1)Nc1cc(C(F)(F)F)ccc1Cl has what TGI?
7.16 µM

Entry CNC(=O)/C(C#N)=C(\N)N1CCCC1 has what TGI?
> 100 µM

Entry COc1cc(OC)c(OC)cc1/C=C/c1ccc2ccccc2n1 has what TGI?
> 10 µM

Entry O=C(Nc1n[nH]c2cc(-c3ccc(F)cc3)ccc12)C1CC1 has what TGI?
> 25 µM

---

- System: MDA-MB-435
- method notes: NCI tumour cell line growth inhibition, 48 h
reported metric: TGI

Entry CCN(CC(O)COc1ccc2c(c1)[n+]([O-])nc(N)[n+]2[O-])C(C)=O (stereo not given) has what TGI?
> 100 µM

Entry COc1ccc(N2CCN(c3nc(-c4ccccn4)nc4sc5c(c34)CCCCCC5)CC2)cc1 has what TGI?
> 100 µM

Entry O=C(NNC(=O)c1ccccc1O)c1cccs1 has what TGI?
> 100 µM

Entry N/C(=N/O)NOCCC(N)C(=O)O (stereo not given) has what TGI?
> 100 µM

Entry COc1cc([C@@H]2c3cc4c(cc3[C@H](OC3OC5COC(C(C)C)OC5C(O)C3O)C3COC(=O)[C@@H]32)OCO4)cc(OC)c1OC (stereo not given in full) has what TGI?
> 54.2 µM

Entry COc1ccc(CC2OC3(CCCCC3)CC3CCCCN32)cc1 (stereo not given) has what TGI?
> 100 µM

Entry Cn1c(=Nc2ccccc2[N+](=O)[O-])sc2ccccc21 has what TGI?
> 100 µM

Entry COc1cc(/C=[N+](\[O-])c2ccccc2Cl)ccc1OC(=S)S has what TGI?
57.7 µM

Entry O=[N+]([O-])c1ccc(NC(c2ccccc2)c2ccc3cccnc3c2O)cc1 (stereo not given) has what TGI?
> 100 µM

Entry CCOC(=O)/C(C(N)=O)=C(/O)c1cnccn1 has what TGI?
> 100 µM

Entry Cc1cccc(Nc2ncc(-c3ccccc3)o2)c1 has what TGI?
> 25 µM

Entry Clc1ccc(CCNCCNC2(c3cc4ccccc4s3)CCCCC2)cc1Cl has what TGI?
3.83 µM

Entry O=S1(=O)OCCOS(=O)(=O)C1C1c2ccccc2-c2ccccc21 has what TGI?
> 100 µM

Entry C[C@H]1O[C@@H](O[C@H]2[C@@H](O)C[C@H](O[C@H]3[C@@H](O)C[C@H](O[C@H]4CC[C@]5(C)C6CC[C@]7(C)[C@@H](C8=CC(=O)OC8)CC[C@]7(O)C6CC[C@@H]5C4)O[C@@H]3C)O[C@@H]2C)C[C@H](O)[C@@H]1O (stereo not given in full) has what TGI?
0.0666 µM

Entry O=C1C(Nc2ccc(S(=O)(=O)Nc3cnc4ccccc4n3)cc2)=CC(=Nc2ccc(S(=O)(=O)Nc3cnc4ccccc4n3)cc2)c2ccccc21 has what TGI?
34 µM

Entry C[C@]12CC[C@@H]3c4cc(C=O)c(OCc5ccccc5)cc4CC[C@H]3[C@@H]1CCC2OCc1ccccc1 (stereo not given in full) has what TGI?
> 100 µM

Entry C=CCNc1nc2c(N)ncnc2s1 has what TGI?
> 10 µM

Entry C=C1C(=O)O[C@H]2[C@H]1CC/C(COC(=O)NCCc1ccc(Br)cc1)=C\CC[C@@]1(C)O[C@@H]21 has what TGI?
2.81 µM

Entry CC1(/C=C/c2ccc(-c3ccccc3)cc2)CCn2cnc3ncnc(c32)N1O (stereo not given) has what TGI?
39.6 µM

Entry CCCC(CCC(=O)O)(CCC(=O)O)[N+](=O)[O-] has what TGI?
> 100 µM

Entry CCc1c[n+]2c(cc1C1=CN3c4ccccc4[C@]45CCN6C/C(=C/CO)[C@H](C[C@H]64)[C@@H]([C@@H]1O)[C@H]35)-c1[nH]c3ccccc3c1CC2 has what TGI?
> 50 µM

Entry COC(=O)c1cc(NC(=O)Cn2c3ccccc3c3ccccc32)cn1C has what TGI?
> 100 µM

Entry Cc1cc(C(=O)NOCCO)c(Nc2ccc(I)cc2F)n(C)c1=O has what TGI?
> 100 µM

Entry Cc1ccc(S(=O)(=O)N(CC(O)COc2ccccc2)c2ccccc2Cl)cc1 (stereo not given) has what TGI?
31.7 µM

Entry C=c1c2ccccc2oc2nc3[nH]c(N)c(C#N)c(N)c3c(=N)c12 has what TGI?
> 100 µM

Entry CC(=O)[C@H]1CC[C@@H]2[C@]1(C)CC=C1[C@]23C=C[C@]2(C[C@@H](O)CC[C@]12C)C(C(=O)O)C3C(=O)O (stereo not given in full) has what TGI?
> 100 µM

Entry O=C(O)C(=Cc1ccc(-c2ccc([N+](=O)[O-])cc2)o1)C(=O)O has what TGI?
> 100 µM

Entry O=[N+]([O-])c1cc(-c2ccc([As](=O)(O)O)cc2)ccc1[As](=O)(O)O has what TGI?
> 100 µM

Entry COC(=O)C1=C(C(=O)OC)SC2(S1)C(C(=O)OC)=C(C(=O)OC)Sc1c2ssc1=O has what TGI?
4.36 µM

Entry COc1ccc(CNCCN2C(=O)c3ccc4c5c(ccc(c35)C2=O)C(=O)N(CCNCc2ccc(OC)c(OC)c2OC)C4=O)c(OC)c1OC has what TGI?
0.801 µM

Entry Clc1ccc(Nc2nnc(COc3ccccc3)c3ccccc23)cc1 has what TGI?
5.31 µM

Entry O=C(/C=C/c1cc2ccccc2[nH]c1=O)c1ccc(O)cc1 has what TGI?
16.8 µM

Entry O=C1/C(=C/Cc2ccco2)N=C(c2ccccc2)N1c1nc2ccc(Sc3ccccc3)cc2[nH]1 has what TGI?
23.5 µM

Entry COc1ccc2c(c1)C(=O)CC(C(N)=O)C2 (stereo not given) has what TGI?
> 100 µM

Entry CS(=O)(=O)Nc1cc(-c2ccc3ncnc(Nc4ccc(OCc5ccccn5)c(Cl)c4)c3c2)cnc1Cl has what TGI?
2.78 µM

---

I'd appreciate it if you could supply TGI values for the items below.
- Test system: HCT-15 colon
- method notes: NCI tumour cell line growth inhibition, 48 h
Give the value, in units of µM, as a plain number.

Entry Nc1nc(N)c2c(n1)NC(c1ccc(Cl)cc1)C1CCc3ccccc3C1=N2 (stereo not given) has what TGI?
18.5

Entry CCN(Cc1c(F)cccc1C(F)(F)F)c1ccc(CO)c(Cl)c1 has what TGI?
27.1

Entry Clc1ccc(CCNCCNC2(c3cc4ccccc4s3)CCCCC2)cc1Cl has what TGI?
3.61

Entry Cc1ccc2c(c1)n([O-])c(C(F)(F)F)c(C(=O)c1ccco1)[n+]2=O has what TGI?
7.62

Entry OCC1OC(n2cnc3cc(Cl)c(Cl)cc32)C(O)C1O (stereo not given) has what TGI?
37.5
